test system: Hs-578T; assay: NCI tumour cell line growth inhibition, 48 h
Active and inactive are the calls of the source. No stated cut-off is given here; in the data, active = GI50 up to about 1.1 µM and inactive = higher.
Outcomes you can answer with include only these: true (active), false (inactive)

Input: Per the assay record, what outcome was assigned to CCN(CC)CCNCc1cc(Cl)cc2c1OCOC2 ?
Output: false

Input: Record lookup: outcome of this test for COc1cccc2c1C(=O)c1c(O)c3c(c(O)c1C2=O)C[C@@](O)(C(=O)CO)C[C@@H]3OC1CC(N)C(OC)C(C)O1 (stereo not given in full) ?
Output: true

Input: Which outcome was entered for the molecule O=C(O)[C@H]1CCCN1CP(=O)(O)CN1CCC[C@@H]1C(=O)O in this test?
Output: false

Input: Dear all, I need the recorded test outcome for CCCOC(=O)c1cc(O)c(O)c(O)c1 [PROPYL GALLATE] , thank you.
Output: false

Input: What call does the record list for CCN(CC)N1C(=O)[N-][N+](CC)(CC)C1=O ?
Output: false

Input: Outcome logged for Cc1cccc(/N=N/c2ccc(/N=N/c3c(O)ccc4ccccc34)cc2C)c1 in this assay:
Output: false

Input: Test call for this molecule, please: C=C(C)c1nc(C#N)c(N)o1
Output: false

Input: Kindly provide the recorded test outcome for the following molecule: Cn1c2c3c(F)c(F)ccc3nc-2cc2ccccc21
Output: false

Input: Hi team, can someone confirm the assay call for c1ccc(-c2nc(-c3ccccc3SSc3ccccc3-c3nc(-c4ccccc4)nn3-c3ccccc3)n(-c3ccccc3)n2)cc1 ?
Output: false

Input: What did the test return for C[C@]12CC[C@H](O)CC1=CC[C@@H]1[C@@H]2CC[C@]2(C)C(=O)/C(=C/c3ccc([N+](=O)[O-])cc3)C[C@@H]12 ?
Output: false
